Where do the numbers come from? From ChEMBL document CHEMBL1147861.

# CC50 at 360 h annotations
assayName: Cytotoxicity against human bone marrow cells assessed as inhibition of CFU-GM formation after 15 days
Format: cell-based, Bone marrow cell
measurementKind: CC50 at 360 h (µM)

| compound | measuredResult |
| --- | --- |
| Cc1nc(N[C@@H]2COC[C@@H]2C)nc(-n2ccnc2C)c1[N+](=O)[O-].Cl | 50 |
| Nc1ccn(C[C@@H](CO)OCP(=O)(O)O)c(=O)n1.O.O | 6 |
| Nc1nc2c(ncn2COC(CO)CO)c(=O)[nH]1 | 30 |
